# Cell Surface binding per entry
Tested on: PSMA+ LNCaP cells
PROTOCOL NOTES: cell surface binding and internalization of radiolabeled compounds
Assay type: cell-based
TEST CONTEXT: 68Ga-labeled, not blocked
Where a SMILES comes first, the peptide text is derived from it. [ ]: non-standard residue; d: D form. The star is where a group is joined. DOTA = O=C(O)CN1CCN(CC(=O)O)CCN(CC(=O)*)CCN(CC(=O)O)CC1; EuK = O=C(O)CC[C@H](NC(=O)N[C@@H](CCCCN*)C(=O)O)C(=O)O; 2Nal = N[C@@H](Cc1ccc2ccccc2c1)C(=O)O; Trx = NC[C@H]1CC[C@H](C(=O)O)CC1
State the answer as a number, implicitly in % ID/10^5 cells.

Some solved cases for reference:
>>> endpoint_result("O=C(O)CC[C@H](NC(=O)N[C@@H](CCCCNC(=O)[C@H](Cc1ccc2ccccc2c1)NC(=O)[C@H]1CC[C@H](CNC(=O)[C@H](Cc2c[nH]cn2)NC(=O)[C@H](Cc2c[nH]cn2)NC(=O)[C@H](Cc2c[nH]cn2)NC(=O)CN2CCN(CC(=O)O)CCN(CC(=O)O)CCN(CC(=O)O)CC2)CC1)C(=O)O)C(=O)O [PS-7, DOTA-(H)3-CHx-2NaI-PSMA] ({DOTA}-HHH[Trx][2Nal]-EuK)")
0.817
>>> endpoint_result("O=C(O)CC[C@H](NC(=O)N[C@@H](CCCCNC(=O)[C@H](Cc1ccc2ccccc2c1)NC(=O)[C@H]1CC[C@H](CNC(=O)[C@H](CCC(=O)O)NC(=O)[C@H](Cc2c[nH]cn2)NC(=O)[C@H](CCC(=O)O)NC(=O)[C@H](Cc2c[nH]cn2)NC(=O)[C@H](CCC(=O)O)NC(=O)[C@H](Cc2c[nH]cn2)NC(=O)CN2CCN(CC(=O)O)CCN(CC(=O)O)CCN(CC(=O)O)CC2)CC1)C(=O)O)C(=O)O [PS-4.2, DOTA-(HE)3-CHx-2NaI-PSMA] ({DOTA}-HEHEHE[Trx][2Nal]-EuK)")
1.437
>>> endpoint_result("O=C(O)CC[C@H](NC(=O)N[C@@H](CCCCNC(=O)[C@H](Cc1c[nH]cn1)NC(=O)[C@H](CCC(=O)O)NC(=O)[C@H](Cc1c[nH]cn1)NC(=O)[C@H](CCC(=O)O)NC(=O)[C@H](Cc1c[nH]cn1)NC(=O)[C@H](CCC(=O)O)NC(=O)[C@H](Cc1ccc2ccccc2c1)NC(=O)[C@H]1CC[C@H](CNC(=O)CN2CCN(CC(=O)O)CCN(CC(=O)O)CCN(CC(=O)O)CC2)CC1)C(=O)O)C(=O)O [PS-1, DOTA-CHx-2NaI-(EH)3-PSMA] ({DOTA-Trx}-[2Nal]EHEHEH-EuK)")
1.162
>>> endpoint_result("O=C(O)CC[C@H](NC(=O)N[C@@H](CCCCNC(=O)[C@H](CCC(=O)O)NC(=O)[C@H](CCC(=O)O)NC(=O)[C@H](CCC(=O)O)NC(=O)[C@H](Cc1ccc2ccccc2c1)NC(=O)[C@H]1CC[C@H](CNC(=O)CN2CCN(CC(=O)O)CCN(CC(=O)O)CCN(CC(=O)O)CC2)CC1)C(=O)O)C(=O)O [PS-6, DOTA-CHx-2NaI-(E)3-PSMA] ({DOTA-Trx}-[2Nal]EEE-EuK)")
0.767

stdin: Quick one: Cell Surface binding for O=C(O)CC[C@H](NC(=O)N[C@@H](CCCCNC(=O)[C@H](Cc1ccc2ccccc2c1)NC(=O)[C@H](Cc1c[nH]cn1)NC(=O)[C@H](CCC(=O)O)NC(=O)[C@H](Cc1c[nH]cn1)NC(=O)[C@H](CCC(=O)O)NC(=O)[C@H](Cc1c[nH]cn1)NC(=O)[C@H](CCC(=O)O)NC(=O)[C@H]1CC[C@H](CNC(=O)CN2CCN(CC(=O)O)CCN(CC(=O)O)CCN(CC(=O)O)CC2)CC1)C(=O)O)C(=O)O [PS-3, DOTA-Chx-(EH)3-2NaI-PSMA] ({DOTA-Trx}-EHEHEH[2Nal]-EuK) ?
stdout: 1.023
